system: Mus musculus; assay: Toxicity day evaluation was carried out on day 5 for animal dosed with 100 mg/kg compound; 6/6; type: organism-based; design: dose 100 mg/kg; details: in vivo

MOLECULAR_STRING | SUBJECT_OF_TEST | Survivors / animals tested
CSc1nc(COC(=O)NC(C)C)c(COC(=O)NC(C)C)n1C | Mus musculus | 6
CNC(=O)OCc1nc(SC)n(Cc2ccccc2)c1COC(=O)NC | Mus musculus | 6
CC(C)NC(=O)OCc1ncn(-c2ccccc2)c1COC(=O)NC(C)C | Mus musculus | 6
CSc1nc(COC(=O)NC(C)C)c(COC(=O)NC(C)C)n1Cc1ccccc1 | Mus musculus | 6
CNC(=O)OCc1nc(SC)n(C)c1COC(=O)NC | Mus musculus | 6
CSc1nc(COC(=O)NC(C)C)c(COC(=O)NC(C)C)n1-c1ccccc1 | Mus musculus | 6

====

tested on: Mus musculus; assay: Toxicity day evaluation was carried out on day 5 for animal dosed with 50 mg/kg compound; 6/6; type: organism-based; parameters: dose 50 mg/kg; settings: in vivo
METRIC_NAME: Survivors / animals tested

MOLECULAR_STRING | SUBJECT_OF_TEST | METRIC_NAME | NUMERIC_READOUT
CSc1nc(COC(=O)NC(C)C)c(COC(=O)NC(C)C)n1C | Mus musculus | Survivors / animals tested | 6
CNC(=O)OCc1nc(SC)n(C)c1COC(=O)NC | Mus musculus | Survivors / animals tested | 6
CSc1nc(COC(=O)NC(C)C)c(COC(=O)NC(C)C)n1Cc1ccccc1 | Mus musculus | Survivors / animals tested | 6
CC(C)NC(=O)OCc1ncn(-c2ccccc2)c1COC(=O)NC(C)C | Mus musculus | Survivors / animals tested | 6
CNC(=O)OCc1nc(SC)n(Cc2ccccc2)c1COC(=O)NC | Mus musculus | Survivors / animals tested | 6
CSc1nc(COC(=O)NC(C)C)c(COC(=O)NC(C)C)n1-c1ccccc1 | Mus musculus | Survivors / animals tested | 6

====

The reader will find reported BWD values listed item by item below.
system: Mus musculus; assay: Body Weight Difference (BWD) of test animals administered with 400 mg/kg compound is determined on day 5 for P388 tumor cells; type: functional
METRIC_NAME: BWD (g)

MOLECULAR_STRING | RESULT_UNITS | NUMERIC_READOUT
CSc1nc(COC(=O)NC(C)C)c(COC(=O)NC(C)C)n1-c1ccccc1 | g | -4.8
CNC(=O)OCc1nc(SC)n(Cc2ccccc2)c1COC(=O)NC | g | -1.2
CC(C)NC(=O)OCc1ncn(-c2ccccc2)c1COC(=O)NC(C)C | g | -2.3
CSc1nc(COC(=O)NC(C)C)c(COC(=O)NC(C)C)n1Cc1ccccc1 | g | -3.2
CSc1nc(COC(=O)NC(C)C)c(COC(=O)NC(C)C)n1C | g | -3.4
CNC(=O)OCc1nc(SC)n(-c2ccccc2)c1COC(=O)NC | g | -5.2

====

system: Mus musculus; test: Body Weight Difference (BWD) of test animals administered with 200 mg/kg compound is determined on day 5 for P388 tumor cells; type: functional
# cutoff -2 g applies to BWD; >= gives YES, < gives NO

MOLECULAR_STRING | ANSWER_LABEL
CNC(=O)OCc1nc(SC)n(Cc2ccccc2)c1COC(=O)NC | YES
CSc1nc(COC(=O)NC(C)C)c(COC(=O)NC(C)C)n1C | YES
CSc1nc(COC(=O)NC(C)C)c(COC(=O)NC(C)C)n1-c1ccccc1 | NO
CSc1nc(COC(=O)NC(C)C)c(COC(=O)NC(C)C)n1Cc1ccccc1 | NO
CC(C)NC(=O)OCc1ncn(-c2ccccc2)c1COC(=O)NC(C)C | YES
CNC(=O)OCc1nc(SC)n(-c2ccccc2)c1COC(=O)NC | NO
